Percent Control listing for selected molecules.
# System: PIP5K2C
# Construct: gene PIP4K2C
# COND: Compound Concentration (nM):1000;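 also: KINOMEscan scanMAX binding as percent activity remaining versus control; lower means stronger binding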
Please give a number only; it is taken to be in %.

{"columns": ["MOLECULE", "Percent Control / %"],
 "data": [
  ["CN(C)c1cc2c(Nc3ccc4c(cnn4Cc4ccccc4)c3)ncnc2cn1 [GW282974X]", 100],
  ["NS(=O)(=O)c1ccc(N/N=C2\\C(=O)Nc3ccc(-c4cnco4)cc32)cc1", 100]
]}

Please examine the following record next.
**Query** State the recorded Percent Control for this entry: COc1ccc(COc2ccc(Cc3cnc(N)nc3N)cc2OC)cc1 [GW632580X]
**Result** 100

====

Percent Control listing for selected molecules.
# Tested on: PIM2
# COND: Compound Concentration (nM):1000
Please give a number only; it is taken to be in %.

**Query** State the recorded Percent Control for this entry: CC(C)COC(=O)c1ccc2c(c1)/C(=C/Nc1ccc(S(N)(=O)=O)cc1)C(=O)N2 [GW416981X]
**Result** 100

====

# Test system: PCTK1
# Construct: gene CDK16
# COND: Compound Concentration (nM):1000
Percent Control listing for selected compounds.
Please give a number only; it is taken to be in %.

{"columns": ["COMPOUND", "MEASUREMENT TYPE", "MEASUREMENT UNITS", "REPORTED RESULT"],
 "data": [
  ["COc1cccc(-c2c[nH]c3c(N/N=C/c4ccncc4)ncnc23)c1 [GW814408X]", "Percent Control", "%", 28],
  ["Cl.O=C(O[C@H]1CN[C@H](C#Cc2cc3ncnc(Nc4ccc5c(cnn5Cc5ccccc5)c4)c3s2)C1)N1CCOCC1 [GSK200398A]", "Percent Control", "%", 83],
  ["Nc1ncnc2occ(-c3ccc(NC(=O)Nc4cc(C(F)(F)F)ccc4F)cc3)c12 [GW770249X]", "Percent Control", "%", 82],
  ["COc1ccc2[nH]c3c4[nH]c5ccc(OC)cc5c4c4c(c3c2c1)C(=O)NC4=O [GW296115X]", "Percent Control", "%", 99]
]}

**Query** State the recorded Percent Control for this entry: CN1CCN(C(=O)c2ccc(NC(=O)Nc3ccc(N(C)c4ccnc(Nc5ccc(CS(C)(=O)=O)cc5)n4)cc3)cc2)CC1.Cl [GW830263A]
**Result** 76

**Query** Would you kindly repeat that for COc1cc2ncnc(Nc3ccc4c(cnn4Cc4ccccc4)c3)c2cc1OC.Cl [GW282449A] ?
**Result** 100

====

Percent Control listing for selected compounds.
# System: SYK
# COND: Compound Concentration (nM):1000
Please give a number only; it is taken to be in %.

{"columns": ["COMPOUND", "REPORTED RESULT"],
 "data": [
  ["NS(=O)(=O)c1ccc(N/N=C2\\C(=O)Nc3ccc(Cl)cc32)cc1 [GW280670X]", 98],
  ["CN1CCN(C(=O)c2ccc(NC(=O)Nc3ccc(N(C)c4ccnc(Nc5ccc(CS(C)(=O)=O)cc5)n4)cc3)cc2)CC1.Cl [GW830263A]", 34],
  ["COc1ccccc1-c1cc(/C=C2\\C(=O)Nc3ncc(Br)cc32)cc(Br)c1O [GW442130X]", 100],
  ["COc1cccc(-n2ncc3c(N/N=C/c4ccncc4)ncnc32)c1 [GW784752X]", 79],
  ["Cl.O=S1CCN(Cc2ccc(-c3ccc4ncnc(Nc5ccc(OCc6ccccc6)c(F)c5)c4c3)o2)CC1 [GW576924A]", 100]
]}

**Query** State the recorded Percent Control for this entry: Cl.O=C(Nc1ccc(Oc2ccc3[nH]c(NC(=O)c4ccccc4)nc3c2)cc1)Nc1cc(C(F)(F)F)ccc1F [GW709042A]
**Result** 99

**Query** Would you kindly repeat that for CC1=C(C(=O)Nc2ccc3[nH]ncc3c2)C(c2ccc(Cl)c(Cl)c2)CC(=O)N1 (stereo not shown) [GSK299115A] ?
**Result** 99
